- Tested on: HIF-1-mediated transcription
- EXPERIMENT_SUMMARY: HIF-1-mediated transcription under hypoxia, LN229-HRE-Lux luciferase reporter assay
- Type: cell-based, human
- CONDITION: Homo sapiens, 24 h; LN229-HRE-Lux cells, hypoxia (1% O2), 24 h; read-out: IC50
- Procedure: The synthesized analogues were evaluated for their potential to inhibit HIF-1-mediated transcription under hypoxia (1% O2) using a human glioma cell line LN229-HRE-Lux, which stably expresses a hypoxia-responsive luciferase reporter gene (Table 1-9). […] The compounds were tested in single (n=1) or multiple (n>1) independent experiments each carried out in quadruplicate. LN229-HRE-luciferase human glioblastoma cells were used to perform the assay. […]
Exercise: state measured pIC50 for each of the molecules provided.
Answers are plain numbers, as −log10 of the molar value.

Field: example entries. Status: answers known.
COc1ccc(S(=O)(=O)N(Cc2cnc3ccccc3c2)c2ccccc2)cc1OC [Compound 13]	5.46
CC1(C)C=Cc2nc(CN(c3ccccc3)S(=O)(=O)c3cccc4cccnc34)ccc2O1 [Compound 26s]	6.05
Cc1cc(C)cc(S(=O)(=O)N(Cc2ccc3c(c2)C=CC(C)(C)O3)c2ccccc2)c1 [Compound 5k]	6.22
COc1ccc(S(=O)(=O)N(Cc2cnc3c(c2)C=CC(C)(C)O3)c2ccccc2)cc1OC [Compound 20a]	5.60

Query: Form field: reported pIC50 of COc1ccc(S(=O)(=O)N(Cc2cc3c(cn2)OC(C)(C)C=C3)c2ccccc2)cc1 [Compound 36a]
Result: 5.85
